pIC50: −log10 of the molar value.
Listing of pIC50 toward Serine/threonine-protein kinase PAK 1 (Homo sapiens, UniProt Q13153), each taken from a published source.
Sequence (Q13153 whole entry): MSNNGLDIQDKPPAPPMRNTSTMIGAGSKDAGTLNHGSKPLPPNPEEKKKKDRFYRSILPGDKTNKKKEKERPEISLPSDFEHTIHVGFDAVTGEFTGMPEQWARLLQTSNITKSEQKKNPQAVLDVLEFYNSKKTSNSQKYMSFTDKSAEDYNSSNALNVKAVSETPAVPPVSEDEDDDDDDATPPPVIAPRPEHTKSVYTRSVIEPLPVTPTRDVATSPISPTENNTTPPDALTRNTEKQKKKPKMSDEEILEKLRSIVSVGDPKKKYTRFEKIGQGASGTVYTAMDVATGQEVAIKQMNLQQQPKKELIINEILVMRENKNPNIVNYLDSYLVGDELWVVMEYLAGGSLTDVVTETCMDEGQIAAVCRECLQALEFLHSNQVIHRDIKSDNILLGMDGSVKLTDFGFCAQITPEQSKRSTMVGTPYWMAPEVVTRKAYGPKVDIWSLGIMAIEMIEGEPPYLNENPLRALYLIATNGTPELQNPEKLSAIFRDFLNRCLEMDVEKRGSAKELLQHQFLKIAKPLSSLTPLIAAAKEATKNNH

- Clc1ccc(C2=Cc3cnc(Nc4ccncc4)nc3N3CCN=C23)c(Cl)c1: < 5.00
- CN1CCN(c2ccc(Nc3nccc(-c4ccc(NCCN)nc4)n3)cc2F)CC1: > 6.00
- CCN1CCC(c2ccc(Nc3ncc4cc(-c5ccc(-c6noc(C)n6)cc5Cl)c(=O)n(CC)c4n3)cc2)CC1: > 7.30
- CN1CCN(c2ccc(Nc3ncc4ccc(=O)n(Cc5c(O)cccc5F)c4n3)cc2)CC1: > 6.00
- CCn1c(=O)c(-c2ccc(-c3cccnc3C)cc2Cl)cc2cnc(Nc3ccc(CCN(C)C)cc3)nc21: > 7.30

So what's the measured pIC50 for this one? "CCOc1ccccc1Cn1c(=O)ccc2cnc(Nc3ccc(N4CCN(C)CC4)cc3)nc21"
> 6.00

###

pIC50: −log10 of the molar value.
Listing of pIC50 toward Serine/threonine-protein kinase PAK 1 (Homo sapiens), each taken from a published source.

* CN(C)CCc1ccc(Nc2ncc3cc(-c4cc(N(C)C)c(-c5cccnc5)cc4Cl)c(=O)n(C)c3n2)cc1 | > 7.30

I'm curious: which pIC50 was measured for "CN1CCN(c2ccc(Nc3ncc4ccc(=O)n(Cc5ccccc5S(C)(=O)=O)c4n3)cc2)CC1" tested on Serine/threonine-protein kinase PAK 1 (Homo sapiens)?
> 6.00

I'm curious: which pIC50 was measured for "CCn1c(=O)c(-c2ccc(-c3cncs3)cc2Cl)cc2cnc(Nc3ccc(N4CCNCC4)c(F)c3)nc21" tested on Serine/threonine-protein kinase PAK 1 (Homo sapiens)?
> 7.30

I'm curious: which pIC50 was measured for "CNC(=O)c1cc(-c2ccc(-c3cc4cnc(Nc5ccc(C6CCNCC6)cc5)nc4n(C)c3=O)c(Cl)c2)ccn1" tested on Serine/threonine-protein kinase PAK 1 (Homo sapiens)?
6.30 to 7.30

I'm curious: which pIC50 was measured for "CCn1c(=O)c(-c2ccc(-c3ccc(C)nc3F)cc2Cl)cc2cnc(Nc3ccc(C4CCNCC4)cc3)nc21" tested on Serine/threonine-protein kinase PAK 1 (Homo sapiens)?
> 7.30

I'm curious: which pIC50 was measured for "CCn1c(=O)c(-c2ccc(-c3ccn[nH]3)cc2)cc2cnc(Nc3ccc(N4CCN(C)CC4)cc3)nc21" tested on Serine/threonine-protein kinase PAK 1 (Homo sapiens)?
5.30 to 6.30

I'm curious: which pIC50 was measured for "CN1CCN(c2ccc(Nc3ncc4ccc(=O)n(Cc5ncsc5C5CC5)c4n3)cc2)CC1" tested on Serine/threonine-protein kinase PAK 1 (Homo sapiens)?
6.30 to 7.30

I'm curious: which pIC50 was measured for CCn1c(=O)c(-c2ccc(-c3noc(C)n3)cc2Cl)cc2cnc(Nc3ccc(C4CCN5CCCC5C4)cc3)nc21 (centres unmarked) tested on Serine/threonine-protein kinase PAK 1 (Homo sapiens)?
> 7.30

###

Listing of pIC50 toward Serine/threonine-protein kinase PAK 1 (Homo sapiens), each taken from a published source.
pIC50: −log10 of the molar value.

Some solved cases for reference:
• CN1CCN(c2ccc(Nc3ncc4c(n3)N3CCN=C3C(c3ccc(Cl)cc3Cl)=C4)cc2F)CC1 = > 7.00
• CCn1c(=O)c(-c2ccc(-c3nc(C)c[nH]3)cc2Cl)cc2cnc(Nc3ccc(N4CCN(C)CC4)cc3)nc21 = > 7.52

I'm curious: which pIC50 was measured for "CNC(=O)c1cc(-c2ccc(-c3cc4cnc(Nc5ccc(C6CCN(C)CC6)cc5)nc4n(C)c3=O)c(Cl)c2)ccn1" tested on Serine/threonine-protein kinase PAK 1 (Homo sapiens)?
6.30 to 7.30

I'm curious: which pIC50 was measured for "CCc1cc(-c2ccc(-c3cc4cnc(Nc5ccc(C6CCN(C)CC6)cc5)nc4n(CC)c3=O)c(Cl)c2)ncn1" tested on Serine/threonine-protein kinase PAK 1 (Homo sapiens)?
> 7.30

###

Listing of IC50 toward Serine/threonine-protein kinase PAK 1 (Homo sapiens), each taken from a published source.

Some solved cases for reference:
- CC#Cc1cc2cnc(Nc3ccc(N4CCN(C)CC4)cc3)nc2n(Cc2ccccc2C(F)(F)F)c1=O: 50 to 500 nM
- CCN(CC)CCc1ccc(Nc2ncc3cc(-c4ccc(-c5cccnc5C)cc4Cl)c(=O)n(CC)c3n2)cc1: < 50 nM
- CCn1c(=O)c(-c2ccc(-c3cccnc3)cc2Cl)cc2cnc(Nc3ccc(CCN(C)C)cc3)nc21: < 50 nM

I'm curious: which IC50 was measured for "CN1CCC(c2ccc(Nc3ncc4cc(-c5cc(-c6ccncc6)ccc5Cl)c(=O)n(C)c4n3)cc2)CC1" tested on Serine/threonine-protein kinase PAK 1 (Homo sapiens)?
500 to 5000 nM

I'm curious: which IC50 was measured for "CCNc1ccc(-c2ccnc(Nc3ccc(N4CCN(C)CC4)cc3)n2)cn1" tested on Serine/threonine-protein kinase PAK 1 (Homo sapiens)?
1000 to 10000 nM

###

Listing of IC50 toward Serine/threonine-protein kinase PAK 1 (Homo sapiens), each taken from a published source.

Some solved cases for reference:
- Cc1cc(-c2nccnc2C)ccc1-c1cc2cnc(Nc3ccc(C4CCN(C)CC4)cc3)nc2n(C)c1=O: < 50 nM
- CCn1c(=O)c(-c2ccc(-c3cccnc3C)cc2Cl)cc2cnc(Nc3ccc(C4CCN(C(C)C)CC4)cc3)nc21: < 50 nM
- CCn1c(=O)c(-c2ccc(-c3cccnc3C)cc2Cl)cc2cnc(Nc3ccc(CCN4CCCC4)cc3)nc21: < 50 nM

So what's the measured IC50 for this one? CC(c1ccccc1C(F)(F)F)n1c(=O)ccc2cnc(Nc3ccc(N4CCN(C)CC4)cc3)nc21 (stereo not shown)
1000 to 10000 nM

###

Listing of pIC50 toward Serine/threonine-protein kinase PAK 1 (Homo sapiens, UniProt Q13153), each taken from a published source.
pIC50: −log10 of the molar value.

Some solved cases for reference:
- CCn1c(=O)c(-c2ccc(-c3noc(C)n3)cc2Cl)cc2cnc(Nc3ccc(CCN(C)C)cc3)nc21: > 7.30
- CCn1c(=O)c(-c2ccc(-c3cnc(C)s3)cc2Cl)cc2cnc(Nc3ccc(C4CCNCC4)cc3)nc21: > 7.30

So what's the measured pIC50 for this one? "CC(=O)Nc1ccnc(-c2ccc(Cl)c(-c3cc4cnc(Nc5ccc(C6CCN(C)CC6)cc5)nc4n(C)c3=O)c2)n1"
< 5.30

So what's the measured pIC50 for this one? "Fc1cc(Nc2ncc3c(n2)N2CCN=C2C(c2ccc(Cl)cc2Cl)=C3)ccc1N1CCNCC1"
> 7.00

So what's the measured pIC50 for this one? "CCn1c(=O)c(-c2ccc(-c3cncs3)cc2Cl)cc2cnc(Nc3ccc(N4CCNCC4)cc3)nc21"
> 7.30

So what's the measured pIC50 for this one? "Clc1ccccc1C1=Cc2cnc(Nc3ccncc3)nc2N2CCN=C12"
< 5.00

###

Listing of IC50 toward Serine/threonine-protein kinase PAK 1 (Homo sapiens, UniProt Q13153), each taken from a published source.

Some solved cases for reference:
• CCn1c(=O)c(-c2ccc(-c3ccc(OC)nc3)cc2Cl)cc2cnc(Nc3ccc(N4CCN(C)CC4)cc3)nc21 = < 0.05 µM
• CCn1c(=O)c(-c2ccc(-c3cccnc3)cc2Cl)cc2cnc(Nc3ccc(C4CCNCC4)c(F)c3)nc21 = < 0.05 µM
• COc1cccc(Nc2ncc3c(n2)N2CCN=C2C(c2ccccc2Cl)=C3)c1 = > 10 µM
• CCn1c(=O)c(-c2ccc(-c3ccnc(C)c3)cc2Cl)cc2cnc(Nc3ccc(C4CCNCC4)cc3)nc21 = < 0.05 µM
• CCN(CC)CCc1ccc(Nc2ncc3cc(-c4ccc(-c5noc(C)n5)cc4Cl)c(=O)n(CC)c3n2)cc1 = < 0.05 µM
• CCn1c(=O)c(-c2ccc(-c3cccnc3F)cc2Cl)cc2cnc(Nc3ccc(N4CCN(C)CC4)cc3)nc21 = < 0.05 µM
• COc1cccc(-c2oncc2CN2CCN(C(C)=O)CC2)c1 = 0.9 µM
• Cc1nc(-c2ccc(-c3cc4cnc(Nc5ccc(C6CCN(C)CC6)cc5)nc4n(C)c3=O)c(C)c2)no1 = < 0.05 µM
• CN1CCN(c2ccc(Nc3ncc4ccc(=O)n(Cc5ccccc5-c5cccs5)c4n3)cc2)CC1 = < 1 µM
• Fc1ccccc1Nc1ncc2c(n1)N1CCCN=C1C(c1cccc3[nH]ncc13)=C2 = > 10 µM

I'm curious: which IC50 was measured for "CNc1ncc2cc(-c3cc(NC(=O)c4ccn(-c5ccc(F)cc5)n4)c(F)cc3C)c(C)nc2n1" tested on Serine/threonine-protein kinase PAK 1 (Homo sapiens, UniProt Q13153)?
≥ 10 µM

I'm curious: which IC50 was measured for CCC1CCCCN1c1cc(C)nc2nc(-c3ccc(C)cc3)nn12 (centres unmarked) tested on Serine/threonine-protein kinase PAK 1 (Homo sapiens, UniProt Q13153)?
5 µM

I'm curious: which IC50 was measured for "CCn1c(=O)c(-c2ccc(-c3scnc3C)cc2Cl)cc2cnc(Nc3ccc(N4CCN(C(C)C)CC4)cc3)nc21" tested on Serine/threonine-protein kinase PAK 1 (Homo sapiens, UniProt Q13153)?
< 0.05 µM

I'm curious: which IC50 was measured for "CCn1c(=O)c(-c2ccc(-c3ccncc3)s2)cc2cnc(Nc3ccc(N4CCN(C)CC4)cc3)nc21" tested on Serine/threonine-protein kinase PAK 1 (Homo sapiens, UniProt Q13153)?
> 5 µM

I'm curious: which IC50 was measured for "CCn1c(=O)c(-c2ccc(-c3cccnc3C)cc2F)cc2cnc(Nc3ccc(C4CCN(C)CC4)cc3)nc21" tested on Serine/threonine-protein kinase PAK 1 (Homo sapiens, UniProt Q13153)?
0.05 to 0.5 µM

I'm curious: which IC50 was measured for COc1cccc2c1C(n1c(=O)ccc3cnc(Nc4ccc(N5CCN(C)CC5)cc4)nc31)CC2 (centres unmarked) tested on Serine/threonine-protein kinase PAK 1 (Homo sapiens, UniProt Q13153)?
1 to 10 µM

I'm curious: which IC50 was measured for "CCn1c(=O)c(-c2ccc(-c3noc(C)n3)cc2Cl)cc2cnc(Nc3ccc(N4CCN(C(C)C)CC4)cc3)nc21" tested on Serine/threonine-protein kinase PAK 1 (Homo sapiens, UniProt Q13153)?
< 0.05 µM
